B1: Far upstream element-binding protein 3, residues 75 to 150; numbered along this chain, Q96I24 (parent)
chain: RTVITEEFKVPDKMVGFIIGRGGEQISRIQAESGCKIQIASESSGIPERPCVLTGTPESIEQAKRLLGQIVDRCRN

variants of: B1; assay: abundance fitness (aPCA) (normalised: wild type 0, dead -1); higher = more abundant; growth selection in yeast, the domain comes from the species named; conditions: Homo sapiens
Threshold rule: abundance fitness greater than or equal to -0.1 is class 1; below that, class 0.

Kindly determine if abundance fitness recorded for `Q69D` is above or exactly -0.1.
class 1

Kindly determine if abundance fitness recorded for `C51T` is above or exactly -0.1.
class 0

Kindly determine if abundance fitness recorded for `R28H` is above or exactly -0.1.
class 0

Kindly determine if abundance fitness recorded for `I19C` is above or exactly -0.1.
class 1

Kindly determine if abundance fitness recorded for `F8V` is above or exactly -0.1.
class 1

Kindly determine if abundance fitness recorded for `S44R` is above or exactly -0.1.
class 1

Kindly determine if abundance fitness recorded for `D12K` is above or exactly -0.1.
class 1

Kindly determine if abundance fitness recorded for `L67D` is above or exactly -0.1.
class 0

Kindly determine if abundance fitness recorded for `E24N` is above or exactly -0.1.
class 1

Kindly determine if abundance fitness recorded for `P50F` is above or exactly -0.1.
class 0

Kindly determine if abundance fitness recorded for `M14E` is above or exactly -0.1.
class 0

Kindly determine if abundance fitness recorded for `S43A` is above or exactly -0.1.
class 1

Kindly determine if abundance fitness recorded for `E58F` is above or exactly -0.1.
class 0

Kindly determine if abundance fitness recorded for `S41R` is above or exactly -0.1.
class 1

Kindly determine if abundance fitness recorded for `I46R` is above or exactly -0.1.
class 1

Kindly determine if abundance fitness recorded for `V71L` is above or exactly -0.1.
class 1

Kindly determine if abundance fitness recorded for `Q30H` is above or exactly -0.1.
class 0

Kindly determine if abundance fitness recorded for `G45N` is above or exactly -0.1.
class 1

Kindly determine if abundance fitness recorded for `I37S` is above or exactly -0.1.
class 0

Kindly determine if abundance fitness recorded for `I37H` is above or exactly -0.1.
class 0
